System: MCC-13
Test: qHTS assay to identify novel small-molecules to repurpose for Merkel cell carcinoma treatment (AID 1296009); also: nearly all actives have a fitted effect of over 60% in size
Details: MCC and control cell lines, CellTiter-Glo viability, 72 h; series mostly up to 46 µM
Inconclusive results are not listed. Calls of active or inactive are those of the source. Calls follow the shape of the dose curve; as a rule, active = well fitted inhibition curve with a large enough effect; inconclusive = small, poorly fitted or top-dose-only effect; inactive = flat fitted curve, though single readings scatter.
Returns: one label drawn from active, inactive

COC[C@H](NC(=O)c1cnc(C)s1)C(=O)N[C@@H](COC)C(=O)N[C@@H](Cc1ccccc1)C(=O)[C@@]1(C)CO1; active
Cc1cc(-c2nnc3n2CCCCC3)c(C)n1-c1ccccc1; inactive
O=C(C=Cc1ccc(CN(CCO)CCc2c[nH]c3ccccc23)cc1)NO; active

Request: What call does the record list for CCS(=O)(=O)Nc1ccc2[nH]c(O)c(C(=Nc3ccc(CN4CCCCC4)cc3)c3ccccc3)c2c1 ?
Result: active

----------
Test: qHTS Screen of the MIPE 4.0 Collection Against Ewings Sarcoma (TC71) (AID 1259253); also: nearly all actives have a fitted effect of over 40% in size
Conditions: TC71 Ewing sarcoma viability, CellTiter-Glo, 48 h; series mostly up to 45.8 µM
Results filed as inconclusive are left out. Active and inactive are the calls of the source. Calls come from the whole dose curve; as a rule, active = well fitted inhibition curve with a large enough effect; inconclusive = small, poorly fitted or top-dose-only effect; inactive = no such curve, though single readings can be large or run the other way.
Returns: one label drawn from class 1 for active, class 0 for inactive

Reference set, count: 10
Cc1cn([C@@H]2O[C@H](CO)[C@@H](O)[C@H]2F)c(=O)[nH]c1=O; class 0
C[C@@H]1C(=O)O[C@H]2CC34[C@H]5C[C@@H](C(C)(C)C)C36[C@H](OC(=O)[C@@H]6O)O[C@@]4(C(=O)O5)[C@]21O (some centres not stated); class 0
CN1CCCN(C(=O)c2cccc(-c3ccc(C=C4C(=O)Nc5ccc(Cl)cc54)o3)c2)CC1; class 1
Cn1cc(C2=C(c3c4n(c5ccccc35)CCC(CN)C4)C(=O)NC2=O)c2ccccc21 (configuration not stated); class 1
C[C@H]1O[C@H](O[C@H]2[C@H](O)[C@@H](O)[C@@H](O[C@H]3[C@H](O)[C@@H](O)C(O)O[C@H]3CO)O[C@H]2CO)[C@H](O)[C@@H](O)[C@H]1N[C@H]1C=C(CO)[C@@H](O)[C@H](O)[C@@H]1O (some centres not stated); class 0
C[C@H](NC(=O)[C@@H](O)c1cc(F)cc(F)c1)C(=O)N[C@@H]1C(=O)N(C)c2ccccc2-c2ccccc21; class 1
CCOc1cc2c(c(F)c1OCC)C(=N)N(CC(=O)c1cc(N3CCOCC3)c(OC)c(C(C)(C)C)c1)C2; class 1
CN(C)c1ccc2cc(C(=O)N[C@@H](CCCN=C(N)CCl)C(=O)NCc3ccccc3)ccc2c1; class 1
CC(=O)NC(CS)C(=O)O (configuration not stated); class 0
CC(C)Oc1ccc(C(=O)N[C@H](CNC(=O)CN(C)C)Cc2ccc(-c3cn4cccc([C@H](C)O)c4n3)cc2)cc1Cl; class 1

Request: What call does the record list for NC(=O)c1cccc(-c2cccc(OC(=O)NC3CCCCC3)c2)c1 ?
Result: class 0

Request: What call does the record list for CC(=O)OCC(=O)[C@@]12N=C(C)O[C@H]1C[C@H]1[C@@H]3CCC4=CC(=O)C=C[C@]4(C)[C@@H]3[C@@H](O)C[C@@]12C ?
Result: class 0

Request: What call does the record list for CC(C)(N)c1ccc(-c2nc3ccccc3nc2-c2ccccc2)cc1 ?
Result: class 1

Request: What call does the record list for O=c1[nH]c(=O)n([C@H]2C[C@@H](O)[C@@H](CO)O2)cc1C=CBr ?
Result: class 0

Request: What call does the record list for CC1(C)O[C@@H]2C[C@H]3[C@@H]4CCC5=CC(=O)C=C[C@]5(C)[C@@H]4[C@@H](O)C[C@]3(C)[C@]2(C(=O)CO)O1 ?
Result: class 0

Request: What call does the record list for OC[C@@H](O)[C@@H](O)[C@H](O)[C@@H](O)CO ?
Result: class 0

Request: What call does the record list for COc1ccnc2[nH]cc(C(=O)C(=O)N3CCN(C(=O)c4ccccc4)C[C@@H]3C)c12 ?
Result: class 1
